System: CCRIS mutagenicity, Ames/micronucleus/aberration tests
Experiment: CCRIS mutagenicity studies
Conditions: Test System: AMES SALMONELLA TYPHIMURIUM; Strain/Indicator: TA98; Metabolic Activation: HAMSTER, LIVER, S-9, AROCLOR 1254 (30%); Method: PREINCUBATION
Description: The CCRIS database contains chemical records with carcinogenicity, mutagenicity, tumor promotion, and tumor inhibition test results. It was developed by the National Cancer Institute (NCI). Data are derived from studies cited in primary journals, current awareness tools, NCI reports, and other sources. Test results have been reviewed by experts in carcinogenesis and mutagenesis. CCRIS provides historical information from the years 1985 - 2011. It is no longer updated. […]
Calls of active or inactive are those of the source. How the calls were made is not given here.
Measured parameter: mutagenic call

Molecule	mutagenic call
C=CCOC(=O)C=C	inactive; negative
Cc1ccc2cccnc2c1	active; positive
Cc1ccc2ncccc2c1	active; positive
CC(=O)CC(=O)Nc1ccccc1	inactive; negative

[in] Input "CCCCOP(=O)(OCCCC)Oc1ccccc1" , output reported mutagenic call.
[out] inactive; negative

[in] // Input: "O=C(O)CC[N+](=O)[O-]" . Output its mutagenic call only.
[out] inactive; negative

[in] Output measured mutagenic call for this item: "O=Cc1c(Cl)cccc1Cl"
[out] inactive; negative

[in] Give reported mutagenic call value for "CCOc1ccc(N)cc1"
[out] inactive; negative

[in] Look up and report measured mutagenic call for this entry: CC(O)C#N (stereo not given)
[out] inactive; negative

[in] State its mutagenic call: "Cc1cccc(Br)c1"
[out] inactive; negative

---

System: CCRIS mutagenicity, Ames/micronucleus/aberration tests
Experiment: CCRIS mutagenicity studies
Settings: Test System: AMES SALMONELLA TYPHIMURIUM; Strain/Indicator: TA98; Metabolic Activation: RAT, LIVER, S-9, AROCLOR 1254; Method: STANDARD PLATE
Active and inactive are the calls of the source. No rule for the calls is given here.
Measured parameter: mutagenic call

Molecule smiles	Target under test	mutagenic call
C[C@@H]1O[C@@H](O[C@H]2[C@H](O[C@H]3[C@H](O[C@H]4CC[C@@]5(C)[C@@H](CC[C@]6(C)[C@@H]5CC=C5[C@@H]7CC(C)(C)C[C@@H](O)[C@]7(C)CC[C@]56C)[C@@]4(C)CO)O[C@H](C(=O)O)[C@@H](O)[C@@H]3O)O[C@H](CO)[C@H](O)[C@@H]2O)[C@H](O)[C@H](O)[C@H]1O	CCRIS mutagenicity, Ames/micronucleus/aberration tests	inactive; negative
Cc1cc(-c2ccc(N=Nc3cc(S(=O)(=O)O)c4ccccc4c3N)c(C)c2)ccc1N=Nc1cc(S(=O)(=O)O)c2ccccc2c1N	CCRIS mutagenicity, Ames/micronucleus/aberration tests	inactive; negative
CN(CC(=O)NN)c1ccc2ccccc2c1	CCRIS mutagenicity, Ames/micronucleus/aberration tests	inactive; negative
CN(C)CCN(Cc1cccs1)c1ccccn1	CCRIS mutagenicity, Ames/micronucleus/aberration tests	inactive; negative
Cc1c(N)cnc2c1nc1c(C)cccn12	CCRIS mutagenicity, Ames/micronucleus/aberration tests	active; positive

[in] Consider the molecule "NC(=O)c1cccc2cccnc12" tested on CCRIS mutagenicity, Ames/micronucleus/aberration tests; state its mutagenic call.
[out] inactive; negative

[in] Provide mutagenic call, tested on CCRIS mutagenicity, Ames/micronucleus/aberration tests, for "BrC(Br)C(Br)Br" .
[out] active; positive

---

System: CCRIS mutagenicity, Ames/micronucleus/aberration tests
Assay: CCRIS mutagenicity studies
Details: Test System: AMES SALMONELLA TYPHIMURIUM; Strain/Indicator: TA100; Metabolic Activation: RAT, LIVER, S-9, AROCLOR 1254; Method: STANDARD PLATE
The source made the active and inactive calls. The rule behind the calls is not given here.
Result category, one only: true (1) for active, false (0) for inactive

Molecule	Assigned class
O=C1c2ccccc2C(=O)c2c1ccc(O)c2O	false (0)

[in] Status in this test for "O=[N+]([O-])c1cc(C(F)(F)F)cc([N+](=O)[O-])c1Cl" ?
[out] false (0)

[in] How was "CCOC(=O)C(C)=O" classified in this test?
[out] false (0)

[in] Hello, I am checking results. What call was entered for "O=[N+]([O-])c1ccc2c(c1)Cc1ccccc1-2" ?
[out] true (1)

---

Tested on: CCRIS mutagenicity, Ames/micronucleus/aberration tests
Assay: CCRIS mutagenicity studies
Settings: Test System: AMES SALMONELLA TYPHIMURIUM; Strain/Indicator: TA1535; Metabolic Activation: RAT, LIVER, S-9, AROCLOR 1254; Method: STANDARD PLATE
Activity calls are given as the source filed them. How the calls were made is not given here.
One label from this list, please: active, inactive

Sample answers from the record:
Compound	Assigned class
N#CSCSC#N	inactive
CC(C)N(N)C(C)C	active
O=C1N=NC(=O)C2C=CC=CC12 (centres undefined)	inactive
COc1ccc([C@@H]2CC(=O)c3c(O)cc(O[C@@H]4O[C@H](CO[C@@H]5O[C@@H](C)[C@H](O)[C@@H](O)[C@H]5O)[C@@H](O)[C@H](O)[C@H]4O)cc3O2)cc1O	inactive
COc1cc(C=O)ccc1O	inactive

[in] What outcome does the record of this test show for "CN(C)c1ccc(C(=C2C=CC(=[N+](C)C)C=C2)c2c(O)c(S(=O)(=O)[O-])cc3cc(S(=O)(=O)O)ccc23)cc1" ?
[out] inactive

[in] Which outcome was entered for the compound "O=C(O)/C=C/c1ccccc1" in this test?
[out] inactive

[in] Given "CC(=O)c1ccc(S(=O)(=O)NC(=O)NC2CCCCC2)cc1" , state the outcome it received in this test.
[out] inactive

[in] Identify the outcome logged in this assay for the compound shown: "CC(C)Nc1nc(Cl)nc(NC(C)C)n1"
[out] inactive

[in] Dear colleague, could you share the recorded outcome for "C=C(C)C(=O)OCC(CC)(COC(=O)C(=C)C)COC(=O)C(=C)C" when you have a moment?
[out] inactive

[in] How did this test come out for "OO" ?
[out] inactive

[in] Query: recorded result category for "CCCCC/C=C/C=C/C=O" in this test
[out] inactive

[in] // param item: "O=S1(=O)OC(c2cc(Br)c(O)c(Br)c2)(c2cc(Br)c(O)c(Br)c2)c2ccccc21" ; yields the recorded call
[out] inactive

[in] Test call, this compound: "Nc1cc([N+](=O)[O-])c(N)cc1Cl"
[out] inactive

---

Test system: CCRIS mutagenicity, Ames/micronucleus/aberration tests
Test: CCRIS mutagenicity studies
Conditions: Test System: AMES SALMONELLA TYPHIMURIUM; Strain/Indicator: TA100; Metabolic Activation: NONE; Method: STANDARD PLATE
Active and inactive are the calls of the source. The rule behind the calls is not given here.
Measured parameter: mutagenic call

Here's what some known entries look like.
Compound	mutagenic call
CC1(C)C[C@H]2C=C(C=O)[C@]3(C=O)C[C@]3(C)[C@H]2C1	active; positive
c1ccc2c(CC3CO3)cccc2c1 (configuration not stated)	active; positive
CC(C)Nc1nc(Cl)nc(NC(C)C)n1	inactive; negative
CC(C)(C)c1cc(-c2ccccc2)ccc1[N+](=O)[O-]	inactive; negative

[in] Return reported mutagenic call. Input compound: "CC1(C)CC2=C(C=O)[C@]3(C=O)C[C@]3(C)[C@@H](O)[C@@H]2C1"
[out] inactive; negative

[in] For the compound "C[C@@H]1C[C@@H]([C@H](O)CC2CC(=O)NC(=O)C2)C(=O)[C@@H](C)C1" , give its measured mutagenic call value.
[out] inactive; negative

[in] Output measured mutagenic call for this item: "CC(C)CC(=O)Nc1snc2ccc(Cl)cc12"
[out] inactive; negative

---

Tested on: CCRIS mutagenicity, Ames/micronucleus/aberration tests
Assay: CCRIS mutagenicity studies
Settings: Test System: AMES SALMONELLA TYPHIMURIUM; Strain/Indicator: TA100; Metabolic Activation: NONE
Excerpt: The CCRIS database contains chemical records with carcinogenicity, mutagenicity, tumor promotion, and tumor inhibition test results. It was developed by the National Cancer Institute (NCI). Data are derived from studies cited in primary journals, current awareness tools, NCI reports, and other sources. Test results have been reviewed by experts in carcinogenesis and mutagenesis. CCRIS provides historical information from the years 1985 - 2011. It is no longer updated. […]
Active and inactive are the calls of the source. How the calls were made is not given here.
Pick one: 1 (yes) = active, 0 (no) = inactive

Consider the worked cases shown below.
Molecule smiles	Assigned class
O=C1NCCN1/N=C/c1ccc([N+](=O)[O-])o1	1 (yes)
FC(F)(F)C(F)(F)C(F)(F)C(F)(F)I	0 (no)
CNC(=O)CN(CCN(CCN(CC(=O)O)CC(=O)NC)CC(=O)O)CC(=O)O	0 (no)

[in] # outcome recorded in this test, key = "O=C(O)[C@@H]1Cc2c([nH]c3ccccc23)[C@H]([C@H]2CCNC2=S)N1"
[out] 0 (no)

[in] Please indicate how the test categorized "O=[N+]([O-])c1ccc2c(c1)CCc1cc3c(cc1-2)CCCC3" .
[out] 1 (yes)
